Target: SARM1 protein in iSARM1 (HEK293) cells (Homo sapiens)
Construct: The full-length SARM1 was synthesized into the pUC57 plasmid by WZ Biosciences Inc., and PCR was performed using pUC57-SARM1 as a DNA template
Assay: Inhibitory activity in inducible SARM1 overexpressing cell line, intracellular cADPR level
Details: activator CZ-48 100 μM, cADPR content
pEC50: −log10 of the molar value.
Quantity kind: pEC50

// solved cases for pEC50 follow
INSERT INTO results (molecule, reported_measurement) VALUES
  ('CN(C(=O)OC(C)(C)C)c1ccc2ncc(-c3cccc(NC(=O)COCCOCCOCC(=O)Nc4cccc5c4CN(C4CCC(=O)NC4=O)C5=O)c3)n2c1 (stereo not drawn)', '5.00 to 6.00'),
  ('Cc1ncsc1-c1ccc(CNC(=O)[C@@H]2C[C@@H](O)CN2C(=O)[C@@H](NC(=O)COCCOCCOCC(=O)Nc2cccc(-c3cnc4ccc(N(C)C(=O)OC(C)(C)C)cn34)c2)C(C)(C)C)cc1', '5.00 to 6.00'),
  ('CNc1ccc2ncc(-c3ccccc3)n2n1', '5.00 to 6.00'),
  ('CNc1ccc2ncc(-c3cc4cc[nH]c4cn3)n2c1', '> 6.00'),
  ('CC(C)(C)OC(=O)N(C/C=C/c1cccc(N)c1)c1ccc2ncc(-c3cccc(N)c3)n2c1', '> 6.00');

// Input: CN(C(=O)OC(C)(C)C)c1ccc2ncc(-c3cccc4c3C(=O)NC4)n2c1 . Output its pEC50 only.
5.00 to 6.00

Identify measured pEC50 associated with CN(C(=O)OC(C)(C)C)c1ccc2ncc(-c3ccc(S(N)(=O)=O)cc3)n2c1
> 6.00

Quick one: give measured pEC50 for CN(C(=O)OC(C)(C)C)c1ccc2ncc(-c3ccc(N)cc3)n2c1
5.00 to 6.00

Answer with the recorded pEC50 for the molecule listed here: CN(C(=O)OC(C)(C)C)c1ccc2ncc(-c3ccncc3)n2c1
5.00 to 6.00

Supply reported pEC50 belonging to this molecule: CN(C(=O)OC(C)(C)C)c1ccc2ncc(-c3ccccc3Cl)n2c1
> 6.00

Identify measured pEC50 corresponding to CNc1ccc2ncc(-c3cccc(N(C)C(=O)C4CCOCC4)c3)n2c1
5.00 to 6.00

Provide pEC50 value for the following molecule: CN(C(=O)OC(C)(C)C)c1ccc2ncc(-c3cccc(NC(=O)c4ccccc4)c3)n2c1
> 6.00

* * *

Molecular target: dN-SARM1 protein (Homo sapiens, UniProt Q6SZW1)
Construct: the N-terminal mitochondrial localization signal peptide of SARM1 was removed
Sequence (Q6SZW1 28-724): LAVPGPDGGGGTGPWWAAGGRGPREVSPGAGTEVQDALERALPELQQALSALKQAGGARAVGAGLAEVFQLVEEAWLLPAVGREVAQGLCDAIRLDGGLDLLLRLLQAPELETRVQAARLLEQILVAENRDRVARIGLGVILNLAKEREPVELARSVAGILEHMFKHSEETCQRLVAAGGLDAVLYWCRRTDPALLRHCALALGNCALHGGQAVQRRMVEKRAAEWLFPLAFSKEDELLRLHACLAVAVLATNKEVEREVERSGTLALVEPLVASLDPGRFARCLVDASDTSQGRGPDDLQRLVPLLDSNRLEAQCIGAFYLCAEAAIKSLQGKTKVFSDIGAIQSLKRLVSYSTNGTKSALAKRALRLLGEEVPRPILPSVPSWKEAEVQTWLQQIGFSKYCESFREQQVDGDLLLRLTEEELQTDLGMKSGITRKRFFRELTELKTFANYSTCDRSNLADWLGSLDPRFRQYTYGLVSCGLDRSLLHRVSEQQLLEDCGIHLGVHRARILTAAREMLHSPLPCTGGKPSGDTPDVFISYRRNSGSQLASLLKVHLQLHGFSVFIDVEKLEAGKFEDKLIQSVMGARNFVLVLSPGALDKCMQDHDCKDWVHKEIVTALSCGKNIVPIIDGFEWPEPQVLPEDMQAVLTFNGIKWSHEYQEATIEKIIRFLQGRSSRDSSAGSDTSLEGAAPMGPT
Test: In vitro biochemical assay for inhibiting SARM1 enzymatic activity (IC50), PC6 fluorescence method
Conditions: 50 μM NAD, 50 μM PC6, 50 μM NMN activator
Structures can show the parent of a compound that is named as a salt.
Reported IC50 values for the following molecules.

INSERT INTO measurements (molecule, quantity_kind, reported_measurement) VALUES
  ('CN(C(=O)C1CC1)c1ccc2ncc(I)n2c1', 'IC50', '< 1000 nM');

Assign IC50 to the following record: COCCOCC(=O)Nc1cccc(-c2cnc3ccc(N4CCOCC4)cn23)c1
< 1000 nM

# return recorded IC50 for entry CNc1ccc2ncc(-c3ccc(OC)cc3)n2c1
1000 to 10000 nM

Could you please provide reported IC50 for CNc1ccc2ncc(-c3cccc(NC(=O)c4ccccc4)n3)n2c1 ? Thanks!
< 1000 nM

Determine its reported IC50: CNc1ccc2ncc(-c3cccc(NC(=O)COCCOCCOCC(=O)N[C@H](C(=O)N4C[C@H](O)C[C@H]4C(=O)NCc4ccc(-c5scnc5C)cc4)C(C)(C)C)c3)n2c1 [Compound 120, hydrochloride]
< 1000 nM

Query IC50 for CNc1ccc2ncc(-c3ccc4ccncc4c3)n2c1
< 1000 nM

Each recorded value in this set is attributed to patent US20240368168A1.
